# Tested on: Plasmodium falciparum NF54 stage V gametocytes
# procedure_details: viability index relative to DMSO control (fraction); higher = less gametocyte killing
# assay_context: 2.5 µM, library set: Broad Institute DOS, incubation time: 72 h
In all, about 9,900 compounds were measured (“viability index relative to DMSO control”: median about 1, lowest 2% from about 0.85 on). This excerpt belongs to a sample that is enriched for the lowest values.
endpoint_label: viability index
Numbers only.

>>> test_result("COCC#Cc1ccc([C@@H]2[C@H](CO)N3C(=O)CN(C(=O)CN4CCOCC4)C[C@@H]23)cc1")
1.02
>>> test_result("O=C(C[C@@H]1C=C[C@@H](NC(=O)C2CCC2)[C@@H](CO)O1)NC1CCCCC1")
1.16
>>> test_result("COc1ccc(NC(=O)N2C[C@@]3(C2)CN([C@@H](CO)c2[nH]c4cc(OC)ccc4c32)C(C)=O)cc1")
1.01
>>> test_result("C[C@@H]1CCCCO[C@@H](CN(C)C(=O)Nc2cccc3ccccc23)[C@H](C)CN([C@@H](C)CO)C(=O)c2cc(NC(=O)CCC(F)(F)F)ccc2O1")
1
>>> test_result("C[C@@H]1CN([C@@H](C)CO)C(=O)c2cc(NC(=O)CCC(F)(F)F)ccc2O[C@@H](C)CCCCO[C@@H]1CN(C)C(=O)Nc1cccc2ccccc12")
0.734
>>> test_result("C[C@@H]1CN([C@H](C)CO)C(=O)CCCn2nncc2CO[C@@H]1CN(C)S(=O)(=O)c1ccc2c(c1)OCCCO2")
1.03

Quick batch: viability index for everything below.
1. C[C@@H]1CN([C@@H](C)CO)C(=O)CCCn2nncc2CO[C@H]1CN(C)S(=O)(=O)c1cn(C)cn1
2. C[C@@H]1CN([C@H](C)CO)C(=O)c2cc(NC(=O)CCC(F)(F)F)ccc2O[C@@H](C)CCCCO[C@H]1CN(C)C(=O)Nc1cccc2ccccc12
3. COc1ccc2c3c([nH]c2c1)[C@H](CO)N(Cc1ccncc1)C[C@]31CN(C1)C(=O)CN(C)C
4. COc1ccc2c3c([C@@H](CO)N(C[C@]33CCN(CC3)C(=O)Nc3cccc(F)c3)C(=O)CN3CCOCC3)n(C)c2c1
5. Cc1cccc(S(=O)(=O)N2CC[C@@H]3[C@H](CO)Nc4ccc(-c5ccccc5F)cc4[C@@H]32)c1
6. N#Cc1ccc(-c2ccc3c(c2)[C@H]2[C@H](CCN2C(=O)C2CCCCC2)[C@H](CO)N3)cc1

Ans.
1: 1.07; 2: 1.08; 3: 1.04; 4: 0.993; 5: 1.06; 6: 1.11
